Tested on: SRS-A
Experiment: Anti-SRS-A action (SRS-A induced shrinkage of guinea pig ileus)
Parameters: species or system guinea pig (Hartley strain male)
Conditions: 10^-6 M, treated five minutes before SRS-A (20 units), 5 min, 1 µM
# 1 = SRS-A Inhibition Ratio % 10^-6 M below 50% (exclusive); 0 = SRS-A Inhibition Ratio % 10^-6 M at/above 50%

smiles-code: CCN(CC)C(=O)c1cccc2c(=O)c(C)c(-c3ccc(Cl)cc3)oc12
assigned-label: 1
//
smiles-code: CCOC(=O)c1cccc2c(=O)c(C)c(-c3ccc(Cl)cc3)oc12
assigned-label: 1
//
smiles-code: Cc1c(-c2ccc(Cl)cc2)oc2c(C(=O)OCCO)cccc2c1=O
assigned-label: 0
//
smiles-code: CCOC(=O)c1cccc2c(=O)c(C)c(-c3ccccc3Cl)oc12
assigned-label: 0
//
smiles-code: Cc1c(-c2ccccc2Cl)oc2c(C(=O)OCCO)cccc2c1=O
assigned-label: 0
//
smiles-code: CCN(CC)C(=O)c1cccc2c(=O)c(C)c(-c3ccccc3OC(C)C)oc12
assigned-label: 0
//
smiles-code: Cc1c(-c2ccc(C(C)C)cc2)oc2c(C(=O)NC3CCCCC3)cccc2c1=O
assigned-label: 0
//
smiles-code: CCN(CC)C(=O)c1cccc2c(=O)c(C)c(-c3ccccc3)oc12
assigned-label: 0
//
smiles-code: Cc1c(-c2cc(Cl)ccc2Cl)oc2c(C(=O)O)cccc2c1=O
assigned-label: 0

---

Tested on: SRS-A
Experiment: Anti-SRS-A action (SRS-A induced shrinkage of guinea pig ileus)
Parameters: species or system guinea pig (Hartley strain male)
Details: 10^-6 M, treated five minutes before SRS-A (20 units), 5 min, 1 µM
Each entry below lists one item and its recorded SRS-A Inhibition Ratio % 10^-6 M value.

compound: Cc1c(-c2ccc(C(C)C)cc2)oc2c(C(=O)O)cccc2c1=O
target-or-system: SRS-A
unit-symbol: %
SRS-A Inhibition Ratio % 10^-6 M: 40.8

compound: CCNC(=O)c1cccc2c(=O)c(C)c(-c3ccc(Cl)cc3)oc12
target-or-system: SRS-A
unit-symbol: %
SRS-A Inhibition Ratio % 10^-6 M: 29.4

compound: CCNC(=O)c1cccc2c(=O)c(C)c(-c3ccc(C(C)C)cc3)oc12
target-or-system: SRS-A
unit-symbol: %
SRS-A Inhibition Ratio % 10^-6 M: 75.0

compound: Cc1c(-c2ccc(C(C)C)cc2)oc2c(C(=O)N3CCCCC3)cccc2c1=O
target-or-system: SRS-A
unit-symbol: %
SRS-A Inhibition Ratio % 10^-6 M: 69.0

compound: CCCCCc1ccc(-c2oc3c(C(=O)O)cccc3c(=O)c2C)cc1 [Example 61]
target-or-system: SRS-A
unit-symbol: %
SRS-A Inhibition Ratio % 10^-6 M: 40.7

compound: CCN(CC)C(=O)c1cccc2c(=O)c(C)c(-c3ccc(C(C)C)cc3)oc12
target-or-system: SRS-A
unit-symbol: %
SRS-A Inhibition Ratio % 10^-6 M: 100

compound: CCOC(=O)c1cccc2c(=O)c(C)c(-c3ccccc3C)oc12
target-or-system: SRS-A
unit-symbol: %
SRS-A Inhibition Ratio % 10^-6 M: 71.4

compound: CCOC(=O)c1cccc2c(=O)c(C)c(-c3cccc(OC)c3OC)oc12
target-or-system: SRS-A
unit-symbol: %
SRS-A Inhibition Ratio % 10^-6 M: 100

compound: CCOc1ccccc1-c1oc2c(C(=O)OCCO)cccc2c(=O)c1C
target-or-system: SRS-A
unit-symbol: %
SRS-A Inhibition Ratio % 10^-6 M: 67.2

compound: CCN(CC)C(=O)c1cccc2c(=O)c(C)c(-c3ccc(C)cc3C)oc12
target-or-system: SRS-A
unit-symbol: %
SRS-A Inhibition Ratio % 10^-6 M: 54.1

compound: CCOC(=O)c1cccc2c(=O)c(C)c(-c3ccccc3CC)oc12
target-or-system: SRS-A
unit-symbol: %
SRS-A Inhibition Ratio % 10^-6 M: 100

compound: CCNC(=O)c1cccc2c(=O)c(C)c(-c3ccc(OC)cc3)oc12
target-or-system: SRS-A
unit-symbol: %
SRS-A Inhibition Ratio % 10^-6 M: 41.9

compound: CCOC(=O)c1cccc2c(=O)c(C)c(-c3ccccc3OC)oc12
target-or-system: SRS-A
unit-symbol: %
SRS-A Inhibition Ratio % 10^-6 M: 100

compound: CCCCN(CCCC)C(=O)c1cccc2c(=O)c(C)c(-c3ccc(C(C)C)cc3)oc12
target-or-system: SRS-A
unit-symbol: %
SRS-A Inhibition Ratio % 10^-6 M: 82.8

compound: CCN(CC)C(=O)c1cccc2c(=O)c(C)c(-c3ccccc3C)oc12
target-or-system: SRS-A
unit-symbol: %
SRS-A Inhibition Ratio % 10^-6 M: 48.8

compound: CCCCCCNC(=O)c1cccc2c(=O)c(C)c(-c3ccc(C(C)C)cc3)oc12
target-or-system: SRS-A
unit-symbol: %
SRS-A Inhibition Ratio % 10^-6 M: 66.1

compound: CCN(CC)C(=O)c1cccc2c(=O)c(C)c(-c3ccccc3Cl)oc12
target-or-system: SRS-A
unit-symbol: %
SRS-A Inhibition Ratio % 10^-6 M: 55.3

compound: CCCCCc1ccc(-c2oc3c(C(=O)OCC)cccc3c(=O)c2C)cc1
target-or-system: SRS-A
unit-symbol: %
SRS-A Inhibition Ratio % 10^-6 M: 38.1
